Biological target: Hemoglobin HbA (Homo sapiens) (UniProt P69905+P68871)
Sequence (P68871 2-147 partner limits assumed): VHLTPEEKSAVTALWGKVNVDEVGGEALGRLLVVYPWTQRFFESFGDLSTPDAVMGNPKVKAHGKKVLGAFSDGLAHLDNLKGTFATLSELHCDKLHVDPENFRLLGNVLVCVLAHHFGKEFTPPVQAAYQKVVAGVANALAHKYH
Sequence (P69905 2-142 limits assumed): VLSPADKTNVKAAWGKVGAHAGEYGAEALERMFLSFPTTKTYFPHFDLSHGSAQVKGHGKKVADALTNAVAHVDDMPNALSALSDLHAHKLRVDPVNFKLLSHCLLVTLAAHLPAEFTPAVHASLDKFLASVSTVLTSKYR
Test: Ratio of effect of compound on affinity of hemoglobin for oxygen to that of control
Assay type: functional
REPORTED METRIC: Ratio

1. CC(C)(Oc1ccc(NC(=O)Nc2ccc([N+](=O)[O-])cc2)cc1)C(=O)O
2.79 [middle of 4 runs]

## Input May I ask what Ratio has been recorded for "Cc1ccc(NC(=O)Nc2ccc(OC(C)(C)C(=O)O)cc2)cc1C" ?
## Output 2.53 [middle of 4 runs]

## Input May I ask what Ratio has been recorded for "O=C(O)COc1ccc(NC(=O)Nc2ccc(Cl)c(Cl)c2)cc1" ?
## Output 1.14 [middle of 4 runs]

## Input May I ask what Ratio has been recorded for "CC(C)(Oc1ccc(NC(=O)Nc2ccc(Cl)cc2Cl)cc1)C(=O)O" ?
## Output 2.04 [middle of 4 runs]

## Input May I ask what Ratio has been recorded for CC(C)(Oc1ccc(CCNC(=O)c2ccc(Cl)cc2)cc1)C(=O)O [BEZAFIBRATE] ?
## Output 1.63 [middle of 4 runs]

## Input May I ask what Ratio has been recorded for "CC(C)(Oc1ccc(NC(=O)Nc2cc(F)cc(F)c2)cc1)C(=O)O" ?
## Output 1.99 [middle of 4 runs]

* * *

Recorded P50 by entry
Organism: Homo sapiens
Assay: Ability of 1 mM compound to reduce affinity of hemoglobin for oxygen is assessed from 50% partial pressure of oxygen in intact red cells
Type: functional
Just so you know, I need the unit written after the number.

The cases that follow already have their P50 on record.
1. CC(C)(Oc1ccc(-c2ccccc2)cc1)C(=O)O
15.5 mmHg
2. CC(C)(Oc1ccc(NC(=O)Nc2ccc(F)cc2)cc1)C(=O)O
12.5 mmHg
3. CC(C)(Oc1ccc(NC(=O)Nc2ccc(Cl)cc2)cc1)C(=O)O
19.5 mmHg
4. CC(=O)Oc1ccc(NC(=O)Nc2ccc(OC(C)(C)C(=O)O)cc2)cc1
16 mmHg
5. CC(C)(Oc1ccc(NC(=O)Nc2ccc(C=O)cc2)cc1)C(=O)O
20.5 mmHg

## Input May I ask what P50 has been recorded for "Cc1ccc(NC(=O)Nc2ccc(OC(C)(C)C(=O)O)cc2)cc1C" ?
## Output 18.5 mmHg

## Input May I ask what P50 has been recorded for "CC(C)(Oc1ccc(NC(=N)Nc2ccc(Cl)cc2)cc1)C(=O)O" ?
## Output 16 mmHg

## Input May I ask what P50 has been recorded for "CC(C)(Oc1ccc(NC(=O)Nc2ccccc2Cl)cc1)C(=O)O" ?
## Output 16.2 mmHg

## Input May I ask what P50 has been recorded for "CC(C)(Oc1ccc(NC(=O)CNC(=O)c2ccc(Cl)cc2)cc1)C(=O)O" ?
## Output 12 mmHg

## Input May I ask what P50 has been recorded for "COc1cc(NC(=O)Nc2ccc(OC(C)(C)C(=O)O)cc2)cc(OC)c1OC" ?
## Output 9.5 mmHg

* * *

Organism: Homo sapiens
Assay: Ability of 1 mM to reduce affinity of hemoglobin for oxygen is assessed from 50% partial pressure of oxygen in membrane free hemoglobin solution
Format: functional
Recorded P50 by entry
# value in mmHg; strip the unit string

The cases that follow already have their P50 on record.
1. CC(C)(Oc1ccc(NC(=O)c2cc(Cl)cc(Cl)c2)cc1)C(=O)O
16
2. Cc1cc(C)c(NC(=O)Nc2ccc(OC(C)(C)C(=O)O)cc2)c(C)c1
6.5
3. CCOC(=O)Nc1ccc(NC(=O)Nc2ccc(OC(C)(C)C(=O)O)cc2)cc1
10.5
4. COc1ccc(NC(=O)Nc2ccc(OC(C)(C)C(=O)O)cc2)cc1
19
5. CC(C)(Oc1ccc(CCNC(=O)c2ccc(Cl)cc2)cc1)C(=O)O [BEZAFIBRATE]
14.2

## Input May I ask what P50 has been recorded for "CC(C)(Oc1ccc(NC(=O)Nc2cccc(Cl)c2)cc1)C(=O)O" ?
## Output 22

## Input May I ask what P50 has been recorded for "CC(C)(Oc1ccc(NC(=O)Nc2ccc3c(c2)OCO3)cc1)C(=O)O" ?
## Output 14

## Input May I ask what P50 has been recorded for "CC(C)(Oc1ccc(NC(=O)Nc2ccc(Cl)cc2)cc1)C(=O)O" ?
## Output 21.8

## Input May I ask what P50 has been recorded for "CC(C)(Oc1ccc(NC(=O)c2ccc(Cl)cc2)cc1)C(=O)O" ?
## Output 39

## Input May I ask what P50 has been recorded for "CC(C)(Oc1ccc(NC(=O)Nc2ccc(F)cc2)cc1)C(=O)O" ?
## Output 18

## Input May I ask what P50 has been recorded for "CC(C)(Oc1ccc(NS(=O)(=O)Cc2ccccc2)cc1)C(=O)O" ?
## Output 9.16

## Input May I ask what P50 has been recorded for "CC(C)(Oc1ccc(NC(=O)Nc2ccc(C=O)cc2)cc1)C(=O)O" ?
## Output 15

## Input May I ask what P50 has been recorded for "CC(=O)Oc1ccc(NC(=O)Nc2ccc(OC(C)(C)C(=O)O)cc2)cc1" ?
## Output 11.5

## Input May I ask what P50 has been recorded for "CC(C)(Oc1ccc(NC(=O)COc2ccc(Cl)cc2)cc1)C(=O)O" ?
## Output 9.25

## Input May I ask what P50 has been recorded for "COc1cc(NC(=O)Nc2ccc(OC(C)(C)C(=O)O)cc2)cc(OC)c1OC" ?
## Output 11.5

## Input May I ask what P50 has been recorded for CC(C)(Oc1ccc(CC(NC(=O)c2ccc(Cl)cc2)C(=O)O)cc1)C(=O)O (configuration not stated) ?
## Output 7.5

## Input May I ask what P50 has been recorded for "CC(C)(Oc1ccc(NC(=O)Nc2cc([N+](=O)[O-])ccc2Cl)cc1)C(=O)O" ?
## Output 23.5
